Data credit: patent US20260297060A1

- Assay Name: Example 9 pharmacokinetics assay for the PK and PD study Part I, II and III (plasma, tumor, liver)
- Format: in vivo, BALB/c nude mice
- Setup Conditions: mouse, tumor, po; 10 mg/kg, p.o., single dose; 12 h; ± SEM; read-out: Mean Concentration in Tumor

>  <Compound>
CCN(C)S(=O)(=O)Nc1ccc(F)c(Oc2ccc3ncc(OC4CC5(CCN(C6CCC(c7cc8c(cc7F)c(N7CCC(=O)NC7=O)nn8C)CC6)CC5)C4)nc3c2)c1C#N (single isomer, unassigned) [Compound 218]

>  <concentration at 12 h / ng/g>
268

$$$$
>  <Compound>
CCN(C)S(=O)(=O)Nc1ccc(F)c(Oc2ccc3ncn(C4CC5(C4)CN(C4CCC(c6cc7c(cc6F)c(N6CCC(=O)NC6=O)nn7C)CC4)C5)c(=O)c3c2)c1C#N (single isomer, unassigned) [Compound 204]

>  <concentration at 12 h / ng/g>
45

$$$$
>  <Compound>
CO[C@H]1CCN(S(=O)(=O)Nc2ccc(F)c(Oc3ccc4ncn([C@H]5COC6(CCN(C7CC8(C7)CN(c7cc9c(cc7F)c(N7CCC(=O)NC7=O)nn9C)C8)CC6)C5)c(=O)c4c3)c2C#N)C1 [Compound 157]

>  <concentration at 12 h / ng/g>
1470

$$$$
